# protocol conditions: in n-hexane, 323.15 K
recorded metric: solubility (mole fraction)
The answer should be a number; do not append a unit.

Prompt: Could you share which solubility (mole fraction) value was measured for `CC[C@H](CC[C@@H](C)[C@H]1CC[C@H]2[C@@H]3CC=C4C[C@@H](O)CC[C@]4(C)[C@H]3CC[C@]12C)C(C)C` ?
Response: 0.00377

###

# protocol conditions: in methanol, 298.15 K
recorded metric: solubility (mole fraction)
The answer should be a number; do not append a unit.

Prompt: Could you share which solubility (mole fraction) value was measured for `CC[C@H](CC[C@@H](C)[C@H]1CC[C@H]2[C@@H]3CC=C4C[C@@H](O)CC[C@]4(C)[C@H]3CC[C@]12C)C(C)C` ?
Response: 0.000299
